Sourced from the supplement of paper PMC10567573

B1: FBF1 (parent)
chain: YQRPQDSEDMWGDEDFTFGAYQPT

Variants of: B1
Test: protein stability index of a GFP-peptide fusion (GPS, HEK-293T) (PSI 1-6); higher = more stable;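 note: lentivirally expressed fusions sorted by FACS into six bins by GFP to DsRed ratio, PSI derived from sequencing read proportions per bin multiplied by bin number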
Conditions: c terminus: a fixed tail appended
Think of 3 as a floor: if protein stability index stands on it or above, it is Satisfied; beneath it, Not satisfied.

Answered cases to consult:
Y1L | Satisfied
F18Q | Satisfied
T17Q | Satisfied
E8G | Not satisfied

## Task Tell me whether protein stability index is at least 3 here: F18L
## Result Not satisfied

## Task Tell me whether protein stability index is at least 3 here: D9V
## Result Not satisfied

## Task Tell me whether protein stability index is at least 3 here: Q5R
## Result Not satisfied

## Task Tell me whether protein stability index is at least 3 here: P4W
## Result Not satisfied
